# credit: ChEMBL document CHEMBL5233266

Molecular target: Gamma-aminobutyric acid receptor subunit alpha-5 (Homo sapiens, UniProt P31644)
Sequence (P31644 whole entry): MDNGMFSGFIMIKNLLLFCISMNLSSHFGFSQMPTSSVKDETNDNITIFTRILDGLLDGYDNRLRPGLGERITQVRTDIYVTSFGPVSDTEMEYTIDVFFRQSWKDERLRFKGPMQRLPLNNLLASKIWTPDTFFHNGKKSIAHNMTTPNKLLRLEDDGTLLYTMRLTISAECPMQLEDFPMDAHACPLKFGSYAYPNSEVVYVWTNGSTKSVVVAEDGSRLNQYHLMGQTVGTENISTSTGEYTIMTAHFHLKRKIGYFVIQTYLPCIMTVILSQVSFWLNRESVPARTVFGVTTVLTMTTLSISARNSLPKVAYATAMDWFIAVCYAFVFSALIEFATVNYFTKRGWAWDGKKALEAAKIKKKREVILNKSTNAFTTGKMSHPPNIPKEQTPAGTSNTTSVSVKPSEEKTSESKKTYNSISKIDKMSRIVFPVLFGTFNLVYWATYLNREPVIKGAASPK
Assay: Binding affinity to human recombinant GABAA alpha5 receptor assessed as inhibition constant incubated for 1 hrs by liquid scintillation counting analysis
pKi listing for selected compounds.
In simple prose, pKi is minus the logarithm base ten of a concentration in moles per litre.

Examples from the recorded data:
>>> endpoint_result("c1ccc2c(c1)[nH]c1cnc3c4ccncc4[nH]c3c12")
6.62
>>> endpoint_result("CCc1c(C(=O)OC)nc(C)c2[nH]c3cc(OC)c(OC)cc3c12")
9.00
>>> endpoint_result("c1ccc2c(c1)[nH]c1cnc3c4cccnc4[nH]c3c12")
6.70

Input CCOC(=O)c1ncc2[nH]c3ccc(O)cc3c2c1COC , output reported pKi.
7.72

Input CCOC(=O)c1ncc2[nH]c3ccccc3c2c1COC , output reported pKi.
8.00

Input CC(C)(C)OC(=O)c1cc2c(cn1)[nH]c1ccccc12 , output reported pKi.
6.96

---

Biological target: Gamma-aminobutyric acid receptor subunit alpha-5 (Homo sapiens, UniProt P31644)
Test: Binding affinity to human recombinant GABAA alpha5 receptor assessed as inhibition constant incubated for 1 hrs by liquid scintillation counting analysis
pKi listing for selected molecules.
In simple prose, pKi is minus the logarithm base ten of a concentration in moles per litre.

Examples from the recorded data:
>>> endpoint_result("CCOC(=O)c1nc(C)c2[nH]c3cc(OC)c(OC)cc3c2c1CC")
8.52
>>> endpoint_result("COC(=O)c1cc2c(cn1)[nH]c1ccc(NCc3ccccc3)cc12")
6.32

Input CCCOc1cc2c(cn1)[nH]c1ccccc12 , output reported pKi.
6.23

---

UniProtKB O76074 measurements of Ki, listed per entry.
Give a bare numeral; the unit nM is implied.

>>> endpoint_result("COc1ccc(-c2cnc(N3CC(=O)c4c([nH]c5ccccc45)C3c3ccc4c(c3)OCO4)nc2)cc1OC (stereo not drawn)")
9
>>> endpoint_result("Nc1ccc(-c2ccc(C(=O)N3CCc4c([nH]c5ccccc45)C3c3ccc4c(c3)OCO4)o2)cc1 (stereo not drawn)")
64

Moving on to another compound below.
Check UniProtKB O76074 data and give Ki for Nc1cccc(-c2ccc(C(=O)N3CCc4c([nH]c5ccccc45)C3c3ccc4c(c3)OCO4)o2)c1 (stereo not drawn) .
51

---

Dual specificity tyrosine-phosphorylation-regulated kinase 1A (Homo sapiens) measurements of IC50, listed per entry.

Examples from the recorded data:
>>> endpoint_result("COc1ccc2c3c([nH]c2c1)C(C)=NCC3")
"4600 nM"
>>> endpoint_result("c1ccc2c(c1)[nH]c1cnccc12")
"> 1800 nM"
>>> endpoint_result("Cc1nccc2c1[nH]c1ccccc12")
"> 1800 nM"

Check Dual specificity tyrosine-phosphorylation-regulated kinase 1A (Homo sapiens) data and give IC50 for N#CCn1c2ccc(O)cc2c2c3c(n4cccc4c21)C(=O)NC3=O .
200 nM

---

Target: Glycogen synthase kinase-3 beta (Homo sapiens)
ENDPOINT_LABEL: pIC50
In simple prose, pIC50 is minus the logarithm base ten of a concentration in moles per litre.

Check Glycogen synthase kinase-3 beta (Homo sapiens) data and give pIC50 for N#CCn1c2ccc(O)cc2c2c3c(n4cccc4c21)C(=O)NC3=O .
6.38

---

Biological target: 5-hydroxytryptamine receptor 6 (Homo sapiens, UniProt P50406)
ENDPOINT_LABEL: Ki (nM)
Give a bare numeral; the unit nM is implied.

Check 5-hydroxytryptamine receptor 6 (Homo sapiens, UniProt P50406) data and give Ki for COc1ccc2c3c([nH]c2c1)C(C)=NCC3 .
1500

---

pKi listing for selected molecules.
Target: Gamma-aminobutyric acid receptor subunit alpha-1 (Homo sapiens, UniProt P14867)
Sequence (P14867 whole entry): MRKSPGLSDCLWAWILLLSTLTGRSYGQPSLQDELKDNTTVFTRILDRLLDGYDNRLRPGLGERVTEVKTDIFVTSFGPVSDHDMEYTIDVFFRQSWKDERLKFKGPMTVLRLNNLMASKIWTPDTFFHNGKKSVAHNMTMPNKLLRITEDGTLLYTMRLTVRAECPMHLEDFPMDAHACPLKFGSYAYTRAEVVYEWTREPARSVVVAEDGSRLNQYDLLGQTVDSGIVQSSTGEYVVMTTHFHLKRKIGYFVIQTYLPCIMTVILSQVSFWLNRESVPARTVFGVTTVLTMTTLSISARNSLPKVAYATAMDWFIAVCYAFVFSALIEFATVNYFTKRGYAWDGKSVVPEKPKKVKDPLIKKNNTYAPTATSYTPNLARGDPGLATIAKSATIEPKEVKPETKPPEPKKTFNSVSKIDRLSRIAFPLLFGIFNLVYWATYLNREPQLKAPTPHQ
Experiment: Binding affinity to human recombinant GABAA alpha1 receptor assessed as inhibition constant incubated for 1 hrs by liquid scintillation counting analysis
In simple prose, pKi is minus the logarithm base ten of a concentration in moles per litre.

>>> endpoint_result("CCCOc1ccc2[nH]c3cnc(C(=O)OCC)c(COC)c3c2c1")
9.30
>>> endpoint_result("CCOC(=O)c1ncc2[nH]c3ccc(OC)cc3c2c1COC")
10.00
>>> endpoint_result("CC(C)(C)OC(=O)c1cc2c(cn1)[nH]c1ccccc12")
9.15

Input c1ccc2c(c1)[nH]c1cnc3c4cccnc4[nH]c3c12 , output reported pKi.
8.70

Input COC(=O)c1cc2c(cn1)[nH]c1ccccc12 , output reported pKi.
8.70

Input CCOC(=O)c1ncc2[nH]c3ccccc3c2c1COC , output reported pKi.
9.22

---

Target: Rho-associated protein kinase 1 (Homo sapiens)
Sequence (Q13464 whole entry): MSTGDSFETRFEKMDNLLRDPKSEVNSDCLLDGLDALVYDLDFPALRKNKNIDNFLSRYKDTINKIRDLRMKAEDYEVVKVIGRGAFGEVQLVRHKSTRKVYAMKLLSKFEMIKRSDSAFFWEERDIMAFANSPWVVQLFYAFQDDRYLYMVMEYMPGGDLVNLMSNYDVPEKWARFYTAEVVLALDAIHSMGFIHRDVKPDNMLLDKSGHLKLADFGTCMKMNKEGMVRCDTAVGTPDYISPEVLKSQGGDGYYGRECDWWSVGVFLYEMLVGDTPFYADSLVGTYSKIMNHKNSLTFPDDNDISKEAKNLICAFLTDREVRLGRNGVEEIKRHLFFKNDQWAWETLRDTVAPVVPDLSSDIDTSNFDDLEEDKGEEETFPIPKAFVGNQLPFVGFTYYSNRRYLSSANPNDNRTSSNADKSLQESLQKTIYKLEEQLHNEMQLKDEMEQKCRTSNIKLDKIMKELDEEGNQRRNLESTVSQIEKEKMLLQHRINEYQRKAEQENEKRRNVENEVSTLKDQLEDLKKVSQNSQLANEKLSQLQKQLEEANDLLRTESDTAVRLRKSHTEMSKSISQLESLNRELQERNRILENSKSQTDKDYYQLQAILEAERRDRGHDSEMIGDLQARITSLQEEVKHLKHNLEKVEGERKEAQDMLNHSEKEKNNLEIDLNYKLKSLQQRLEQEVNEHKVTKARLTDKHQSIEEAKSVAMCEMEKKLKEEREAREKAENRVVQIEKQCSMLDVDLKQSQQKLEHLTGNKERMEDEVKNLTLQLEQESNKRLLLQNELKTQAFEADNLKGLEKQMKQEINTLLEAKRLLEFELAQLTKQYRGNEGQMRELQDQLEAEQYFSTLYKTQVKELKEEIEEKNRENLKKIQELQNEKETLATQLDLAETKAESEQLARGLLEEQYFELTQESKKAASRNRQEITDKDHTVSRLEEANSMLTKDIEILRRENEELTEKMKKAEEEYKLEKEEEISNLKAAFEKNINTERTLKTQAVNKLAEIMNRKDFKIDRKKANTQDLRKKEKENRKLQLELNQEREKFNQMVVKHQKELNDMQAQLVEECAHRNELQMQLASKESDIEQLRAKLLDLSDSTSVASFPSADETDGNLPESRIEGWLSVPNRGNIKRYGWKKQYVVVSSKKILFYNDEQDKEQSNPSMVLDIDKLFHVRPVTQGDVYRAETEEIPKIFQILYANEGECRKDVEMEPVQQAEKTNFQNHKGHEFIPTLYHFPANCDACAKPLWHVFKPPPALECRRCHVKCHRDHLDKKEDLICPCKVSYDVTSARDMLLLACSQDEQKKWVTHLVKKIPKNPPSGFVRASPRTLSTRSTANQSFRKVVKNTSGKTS
ENDPOINT_LABEL: pIC50
In simple prose, pIC50 is minus the logarithm base ten of a concentration in moles per litre.

Check Rho-associated protein kinase 1 (Homo sapiens) data and give pIC50 for COc1ccc2c(c1)[nH]c1c(C)nccc12 .
5.82

---

5-hydroxytryptamine receptor 2A (Rattus norvegicus) measurements of pKi, listed per entry.
In simple prose, pKi is minus the logarithm base ten of a concentration in moles per litre.

>>> endpoint_result("COc1ccc(CC2NCCc3c2[nH]c2c(C)c(C)ccc32)c(Br)c1OC (stereo not drawn)")
8.05

Check 5-hydroxytryptamine receptor 2A (Rattus norvegicus) data and give pKi for COc1ccc(CC2NCCc3c2[nH]c2cc(C)c(C)cc32)cc1OC (stereo not drawn) .
8.30

---

Target: Gamma-aminobutyric acid receptor subunit alpha-3 (Homo sapiens)
Assay: Binding affinity to human recombinant GABAA alpha3 receptor assessed as inhibition constant incubated for 1 hrs by liquid scintillation counting analysis
pKi listing for selected compounds.
In simple prose, pKi is minus the logarithm base ten of a concentration in moles per litre.

Examples from the recorded data:
>>> endpoint_result("c1ccc2c(c1)[nH]c1cnc3c4ccncc4[nH]c3c12")
7.51
>>> endpoint_result("CC(C)(C)OC(=O)c1cc2c(cn1)[nH]c1ccccc12")
7.72
>>> endpoint_result("c1ccc2c(c1)[nH]c1c2ncc2[nH]c3ccccc3c21")
9.00
>>> endpoint_result("CCOC(=O)c1nc(C)c2[nH]c3cc(OC)c(OC)cc3c2c1CC")
8.40
>>> endpoint_result("CC(OC(=O)c1cc2c(cn1)[nH]c1ccccc12)c1ccccc1 (stereo not given)")
6.00

Input CCOC(=O)c1ncc2[nH]c3ccccc3c2c1COC , output reported pKi.
8.30

---

Molecular target: UniProt:P28223
Test: Displacement of [3H]-LSD from human 5-HT2A expressed in human HEK cells assessed as inhibition constant by FLIPR assay
ENDPOINT_LABEL: Ki (µM)
Give a bare numeral; the unit µM is implied.

>>> endpoint_result("COc1ccc2c3c([nH]c2c1)C(C)=NCC3 [HARMALINE]")
5
>>> endpoint_result("COc1ccc2[nH]c3c(c2c1)CCN=C3C")
4.2

Moving on to another compound below.
Input CC1=NCCc2c1[nH]c1ccccc21 , output reported Ki.
0.99

---

IC50 listing for selected compounds.
Target: Glutamate receptor ionotropic, NMDA 2B (Homo sapiens, UniProt Q05586+Q13224)
Sequence (Q13224 whole entry, one chain of several): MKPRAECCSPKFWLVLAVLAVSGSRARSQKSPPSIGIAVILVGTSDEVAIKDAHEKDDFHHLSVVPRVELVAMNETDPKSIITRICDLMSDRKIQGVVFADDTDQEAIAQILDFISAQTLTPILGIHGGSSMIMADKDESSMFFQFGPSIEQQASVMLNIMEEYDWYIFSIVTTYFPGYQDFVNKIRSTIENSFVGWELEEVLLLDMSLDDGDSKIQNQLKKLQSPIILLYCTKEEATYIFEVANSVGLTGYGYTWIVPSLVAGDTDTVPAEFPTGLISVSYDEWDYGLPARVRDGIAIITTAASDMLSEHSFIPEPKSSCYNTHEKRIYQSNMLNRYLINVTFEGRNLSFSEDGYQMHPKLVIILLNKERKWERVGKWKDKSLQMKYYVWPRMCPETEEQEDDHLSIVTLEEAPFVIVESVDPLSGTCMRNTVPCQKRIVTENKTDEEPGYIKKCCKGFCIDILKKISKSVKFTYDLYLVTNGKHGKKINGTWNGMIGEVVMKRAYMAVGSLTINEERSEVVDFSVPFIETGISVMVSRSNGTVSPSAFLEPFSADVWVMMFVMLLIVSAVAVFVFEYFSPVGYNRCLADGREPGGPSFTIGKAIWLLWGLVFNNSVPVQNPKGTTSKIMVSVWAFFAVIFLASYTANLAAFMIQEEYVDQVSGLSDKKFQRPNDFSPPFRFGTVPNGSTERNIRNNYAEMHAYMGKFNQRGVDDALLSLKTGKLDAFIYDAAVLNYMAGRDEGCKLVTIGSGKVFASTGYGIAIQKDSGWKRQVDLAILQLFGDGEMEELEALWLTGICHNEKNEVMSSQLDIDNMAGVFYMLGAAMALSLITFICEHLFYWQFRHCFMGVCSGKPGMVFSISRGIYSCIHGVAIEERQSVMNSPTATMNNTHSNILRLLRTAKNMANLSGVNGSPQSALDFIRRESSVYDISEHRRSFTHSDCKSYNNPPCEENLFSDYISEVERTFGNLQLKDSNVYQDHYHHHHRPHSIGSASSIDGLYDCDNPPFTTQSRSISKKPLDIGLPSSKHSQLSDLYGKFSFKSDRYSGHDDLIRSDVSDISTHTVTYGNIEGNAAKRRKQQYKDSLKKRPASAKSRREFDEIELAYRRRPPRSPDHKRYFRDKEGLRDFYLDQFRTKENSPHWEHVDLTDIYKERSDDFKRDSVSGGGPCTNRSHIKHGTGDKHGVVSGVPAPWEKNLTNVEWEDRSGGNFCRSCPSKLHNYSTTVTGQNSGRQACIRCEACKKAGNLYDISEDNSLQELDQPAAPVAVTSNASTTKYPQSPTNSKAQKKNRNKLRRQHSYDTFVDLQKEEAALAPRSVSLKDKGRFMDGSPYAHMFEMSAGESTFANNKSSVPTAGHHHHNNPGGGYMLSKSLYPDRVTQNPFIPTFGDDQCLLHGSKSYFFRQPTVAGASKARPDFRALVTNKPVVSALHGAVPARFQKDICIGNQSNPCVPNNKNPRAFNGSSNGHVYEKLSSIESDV
Experiment: Inhibition of NMDA receptor NR2B subunit (unknown origin)
Give a bare numeral; the unit nM is implied.

Examples from the recorded data:
>>> endpoint_result("Oc1ccc2[nH]c3c(c2c1)CCN(CCCCc1ccccc1)C3")
140
>>> endpoint_result("Oc1ccc2c3c([nH]c2c1)CN(CCCCc1ccccc1)CC3")
50
>>> endpoint_result("Oc1ccc(CCCN2CCc3c([nH]c4ccccc34)C2)cc1")
87
>>> endpoint_result("O=C1CCC[C@@H]2c3[nH]c4ccccc4c3C[C@@H](CO)N12")
30000

Moving on to another compound below.
Input c1ccc(C[C@@H]2NCCc3c2[nH]c2ccccc32)cc1 , output reported IC50.
27000

---

Molecular target: Rho-associated protein kinase 2 (Homo sapiens, UniProt O75116)
Sequence (O75116 whole entry): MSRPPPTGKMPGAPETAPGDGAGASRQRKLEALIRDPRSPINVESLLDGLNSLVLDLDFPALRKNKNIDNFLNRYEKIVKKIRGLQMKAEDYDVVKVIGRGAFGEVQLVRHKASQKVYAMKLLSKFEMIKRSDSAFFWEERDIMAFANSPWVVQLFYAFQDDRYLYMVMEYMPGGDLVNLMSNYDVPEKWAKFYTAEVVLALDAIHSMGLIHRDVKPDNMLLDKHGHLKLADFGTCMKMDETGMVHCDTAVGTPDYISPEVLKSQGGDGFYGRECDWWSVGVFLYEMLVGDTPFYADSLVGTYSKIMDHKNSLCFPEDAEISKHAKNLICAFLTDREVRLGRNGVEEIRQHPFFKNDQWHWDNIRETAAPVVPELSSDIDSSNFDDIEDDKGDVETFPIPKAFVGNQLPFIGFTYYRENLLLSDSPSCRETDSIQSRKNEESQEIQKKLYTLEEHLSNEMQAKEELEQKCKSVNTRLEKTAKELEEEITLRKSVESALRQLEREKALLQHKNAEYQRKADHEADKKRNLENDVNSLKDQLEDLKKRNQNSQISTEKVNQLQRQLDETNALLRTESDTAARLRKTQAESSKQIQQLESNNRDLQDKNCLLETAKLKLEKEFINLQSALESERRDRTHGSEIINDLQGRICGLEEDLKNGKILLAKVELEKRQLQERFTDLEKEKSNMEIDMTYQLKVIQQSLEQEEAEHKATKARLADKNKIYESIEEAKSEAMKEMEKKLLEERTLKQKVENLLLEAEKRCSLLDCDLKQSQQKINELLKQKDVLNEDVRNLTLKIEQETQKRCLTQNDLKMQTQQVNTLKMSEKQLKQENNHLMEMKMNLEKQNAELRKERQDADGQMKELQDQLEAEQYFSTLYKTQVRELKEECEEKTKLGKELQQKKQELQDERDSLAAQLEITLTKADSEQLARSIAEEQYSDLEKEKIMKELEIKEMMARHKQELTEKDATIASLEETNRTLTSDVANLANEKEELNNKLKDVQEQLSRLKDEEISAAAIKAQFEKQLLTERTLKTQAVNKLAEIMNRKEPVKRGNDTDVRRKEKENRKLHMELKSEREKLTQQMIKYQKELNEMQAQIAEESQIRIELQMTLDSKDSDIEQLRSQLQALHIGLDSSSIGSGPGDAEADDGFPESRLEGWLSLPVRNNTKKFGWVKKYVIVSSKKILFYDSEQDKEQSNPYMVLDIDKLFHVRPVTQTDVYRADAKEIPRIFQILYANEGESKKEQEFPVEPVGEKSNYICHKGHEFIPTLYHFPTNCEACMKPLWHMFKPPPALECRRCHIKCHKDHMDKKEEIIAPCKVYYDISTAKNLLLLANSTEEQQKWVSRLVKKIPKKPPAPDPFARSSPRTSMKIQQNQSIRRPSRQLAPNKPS
pIC50: −log10 of the molar value.
ENDPOINT_LABEL: pIC50

Input COc1ccc2c(c1)[nH]c1c(C)nccc12 , output reported pIC50.
< 4.40

---

Molecular target: Gamma-aminobutyric acid receptor subunit alpha-1 (Rattus norvegicus)
Experiment: Displacement of [3H]-flumazenil from rat recombinant alpha1 GABAA receptor assessed as inhibition constant in presence of zolpidem
ENDPOINT_LABEL: pKi
In simple prose, pKi is minus the logarithm base ten of a concentration in moles per litre.

Check Gamma-aminobutyric acid receptor subunit alpha-1 (Rattus norvegicus) data and give pKi for Cn1c2ccc(F)cc2c2c(C(=O)N3CCCC3)cn(-c3ccccc3)c(=O)c21 .
8.15
